Overview of reported cell viability across a group of compounds:
Tested on: LAMA-84
Assay: cell viability (% survival relative to DMSO control, bortezomib = 0%); higher = less cytotoxic
Conditions: 10 nM; 72 h
Give just the number in %; leave the unit off.

# compound, unit.abbrev, cell viability
records = [
    ("CCCCCCCCCCCCCCOc1ccc(C(=O)O)o1", "%", 105),
    ("c1ccc2c(c1)SCc1c-2[nH]c2ccccc12", "%", 103),
    ("O=C(c1c2ccccc2cc2ccccc12)N1CCC(N2CCC[C@@H](C(=O)N3CCOCC3)C2)CC1", "%", 108),
]

Below: the item to evaluate.
Form field: reported cell viability of Cn1c2cc(S(C)=O)sc2c2cnn(Cc3cccc(N)c3)c(=O)c21 (centres undefined)
98.2
